target: C-Raf FL (full-length C-Raf protein) (Homo sapiens (Human), UniProt P04049, Y340E/Y341E); assay type: biochemical; details: read-out: c-Raf FL IC-50
Sequence (P04049 whole entry Y340E/Y341E): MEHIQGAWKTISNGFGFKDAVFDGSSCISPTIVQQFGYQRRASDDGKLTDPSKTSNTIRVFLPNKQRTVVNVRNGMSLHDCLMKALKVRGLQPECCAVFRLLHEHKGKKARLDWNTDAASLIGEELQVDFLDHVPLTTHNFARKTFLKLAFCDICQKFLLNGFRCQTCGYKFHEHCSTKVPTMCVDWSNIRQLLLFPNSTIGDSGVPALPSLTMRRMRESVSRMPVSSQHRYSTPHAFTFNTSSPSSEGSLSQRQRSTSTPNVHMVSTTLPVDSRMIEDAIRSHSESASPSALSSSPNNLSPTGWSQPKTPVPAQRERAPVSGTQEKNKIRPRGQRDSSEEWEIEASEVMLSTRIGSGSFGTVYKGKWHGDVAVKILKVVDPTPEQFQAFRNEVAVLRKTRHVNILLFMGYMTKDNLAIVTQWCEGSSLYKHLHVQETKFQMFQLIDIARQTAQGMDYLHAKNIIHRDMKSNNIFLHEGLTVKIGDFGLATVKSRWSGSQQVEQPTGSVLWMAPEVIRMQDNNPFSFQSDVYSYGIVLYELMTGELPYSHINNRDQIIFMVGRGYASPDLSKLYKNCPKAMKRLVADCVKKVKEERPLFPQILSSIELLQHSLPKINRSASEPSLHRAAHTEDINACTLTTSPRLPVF
Sequence (P63104 whole entry partner): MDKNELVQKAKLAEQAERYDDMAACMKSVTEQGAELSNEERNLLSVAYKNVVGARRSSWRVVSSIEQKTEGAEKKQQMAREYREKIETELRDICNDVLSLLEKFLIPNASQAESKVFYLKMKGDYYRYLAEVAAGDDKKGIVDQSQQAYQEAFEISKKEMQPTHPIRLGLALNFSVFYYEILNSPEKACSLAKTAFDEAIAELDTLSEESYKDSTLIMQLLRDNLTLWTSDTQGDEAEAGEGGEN
reported.metric: pIC50
Please express pIC50 as -log10 of the molar concentration.

Form: Entry = Cc1ncc(NC(=O)c2cccc(C(F)(F)F)c2)cc1-c1cc(N2CCOCC2)nc(NC[C@@H](C)O)n1 | System = C-Raf FL (full-length C-Raf protein) (Homo sapiens (Human), UniProt P04049, Y340E/Y341E) | pIC50 = ____ 9.10
